- experiment_summary: DTI (dye transfer inhibition) test, white cotton in wash liquor with dissolved test dye
- assay_context: Reactive Blue 238 6 mg/l of the 100% formulation; complex 20 μmol/l wash liquor; 8.6 mmol/l H2O2; 40° C., 30 min
assay_metric: DTI effect a(%) Dye 2

| compound | readout_value |
| --- | --- |
| CC(C)N(C)c1ccc(C=NCCN(CCN=Cc2ccc(N(C)C(C)C)cc2O)CC/N=C/c2ccc(N(C)C(C)C)cc2O)c(O)c1 [Example 7] | 83 |
| CN(C)c1ccc(/C=N\CCN(CC/N=C/c2ccc(N(C)C)cc2O)CC/N=C/c2ccc(N(C)C)cc2O)c(O)c1 [Example 3] | 80 |
| O=[N+]([O-])c1ccc(O)c(C=NCCN(CCN=Cc2cc([N+](=O)[O-])ccc2O)CC/N=C/c2cc([N+](=O)[O-])ccc2O)c1 [Example 6] | 80 |
| Oc1ccccc1/C=N\CCN(CC/N=C/c1ccccc1O)CC/N=C/c1ccccc1O [Example 1] | 96 |
| C[N+](C)(C)c1ccc(O)c(C=NCCN(CCN=Cc2cc([N+](C)(C)C)ccc2O)CC/N=C/c2cc([N+](C)(C)C)ccc2O)c1.[Br-].[Br-].[Br-] [Example 11] | 94 |
| CCN(CC)c1ccc(C=NCCN(CCN=Cc2ccc(N(CC)CC)cc2O)CC/N=C/c2ccc(N(CC)CC)cc2O)c(O)c1 [Example 2] | 73 |
